# ASSAY TARGET: Adenosine receptor A2a (Homo sapiens, UniProt P29274)
# Sequence (P29274 whole entry): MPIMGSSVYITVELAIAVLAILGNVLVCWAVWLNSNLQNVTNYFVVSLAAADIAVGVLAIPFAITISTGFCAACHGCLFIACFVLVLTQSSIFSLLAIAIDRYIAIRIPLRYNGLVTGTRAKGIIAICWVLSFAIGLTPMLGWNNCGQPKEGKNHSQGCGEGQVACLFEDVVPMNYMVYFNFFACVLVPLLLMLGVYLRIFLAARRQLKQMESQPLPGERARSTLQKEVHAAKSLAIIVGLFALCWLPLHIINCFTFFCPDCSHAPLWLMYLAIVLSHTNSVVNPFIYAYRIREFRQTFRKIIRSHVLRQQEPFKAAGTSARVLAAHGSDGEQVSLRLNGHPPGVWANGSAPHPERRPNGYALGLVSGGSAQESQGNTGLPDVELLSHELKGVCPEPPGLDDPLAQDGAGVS
# ASSAY NAME: Agonist activity at human A2A adenosine receptor expressed in CHO cells assessed as stimulation of forskolin-induced cAMP production at 10 uM preincubated for 45 mins prior forskolin treatment measured after 15 mins by liquid scintillation spectrometry relative to 2-[p-(2-carboxyethyl)phenylethylamino]-5'-N-ethylcarboxamido-adenosine
# Type: functional, cell-based
ENDPOINT: Emax (%)

[[record]]
input_smiles = "CCNC(=O)[C@H]1O[C@@H](n2cnc3c(N)nc(NCCc4ccc(CCC(=O)N[C@@H](Cc5ccccc5)C(=O)OC)cc4)nc32)[C@H](O)[C@@H]1O"
assay_target = "Adenosine receptor A2a (Homo sapiens, UniProt P29274)"
observed_measurement = 111

[[record]]
input_smiles = "CCNC(=O)[C@H]1O[C@@H](n2cnc3c(N)nc(NCCc4ccc(CCC(=O)N[C@@H](CCCNC(=N)N)C(=O)O)cc4)nc32)[C@H](O)[C@@H]1O"
assay_target = "Adenosine receptor A2a (Homo sapiens, UniProt P29274)"
observed_measurement = 94.5

[[record]]
input_smiles = "CCNC(=O)[C@H]1O[C@@H](n2cnc3c(N)nc(NCCc4ccc(CCC(=O)N[C@H](Cc5ccccc5)C(=O)O)cc4)nc32)[C@H](O)[C@@H]1O"
assay_target = "Adenosine receptor A2a (Homo sapiens, UniProt P29274)"
observed_measurement = 93.4

[[record]]
input_smiles = "CCNC(=O)[C@H]1O[C@@H](n2cnc3c(N)nc(NCCc4ccc(CCC(=O)N[C@H](Cc5c[nH]c6ccccc56)C(=O)O)cc4)nc32)[C@H](O)[C@@H]1O"
assay_target = "Adenosine receptor A2a (Homo sapiens, UniProt P29274)"
observed_measurement = 113

[[record]]
input_smiles = "CCNC(=O)[C@H]1O[C@@H](n2cnc3c(N)nc(NCCc4ccc(CCC(=O)N[C@@H](Cc5c[nH]cn5)C(=O)O)cc4)nc32)[C@H](O)[C@@H]1O"
assay_target = "Adenosine receptor A2a (Homo sapiens, UniProt P29274)"
observed_measurement = 105

[[record]]
input_smiles = "CCNC(=O)[C@H]1O[C@@H](n2cnc3c(N)nc(NCCc4ccc(CCC(=O)N[C@H](Cc5ccccc5)C(=O)OC)cc4)nc32)[C@H](O)[C@@H]1O"
assay_target = "Adenosine receptor A2a (Homo sapiens, UniProt P29274)"
observed_measurement = 92.6

[[record]]
input_smiles = "CCNC(=O)[C@H]1O[C@@H](n2cnc3c(N)nc(NCCc4ccc(CCC(=O)N[C@@H](CC(=O)O)C(=O)O)cc4)nc32)[C@H](O)[C@@H]1O"
assay_target = "Adenosine receptor A2a (Homo sapiens, UniProt P29274)"
observed_measurement = 94.8

[[record]]
input_smiles = "CCNC(=O)[C@H]1O[C@@H](n2cnc3c(N)nc(NCCc4ccc(CCC(=O)N[C@H](CCCNC(=N)N)C(=O)O)cc4)nc32)[C@H](O)[C@@H]1O"
assay_target = "Adenosine receptor A2a (Homo sapiens, UniProt P29274)"
observed_measurement = 94.7

[[record]]
input_smiles = "CCNC(=O)[C@H]1O[C@@H](n2cnc3c(N)nc(NCCc4ccc(CCC(=O)N[C@@H](Cc5c[nH]c6ccccc56)C(=O)OC)cc4)nc32)[C@H](O)[C@@H]1O"
assay_target = "Adenosine receptor A2a (Homo sapiens, UniProt P29274)"
observed_measurement = 104

[[record]]
input_smiles = "CCNC(=O)[C@H]1O[C@@H](n2cnc3c(N)nc(NCCc4ccc(CCC(=O)N[C@H](CC(=O)O)C(=O)O)cc4)nc32)[C@H](O)[C@@H]1O"
assay_target = "Adenosine receptor A2a (Homo sapiens, UniProt P29274)"
observed_measurement = 94.3

[[record]]
input_smiles = "CCNC(=O)[C@H]1O[C@@H](n2cnc3c(N)nc(NCCc4ccc(CCC(=O)N[C@@H](Cc5ccccc5)C(=O)O)cc4)nc32)[C@H](O)[C@@H]1O"
assay_target = "Adenosine receptor A2a (Homo sapiens, UniProt P29274)"
observed_measurement = 103

